Each entry below carries its reported pKi.
target under test: class C β-lactamase P99 from Enterobacter cloacae (Enterobacter cloacae), P05364
assay: β-lactamase inhibition assay (cephalosporin C), Ki from IC50 by Cheng-Prusoff
No end group written: not given here.
Friendly reminder that pKi comes from taking -log10 of the concentration in mol/L.

Please review the entries below; each comes with its answer.
RRGHYY-NH2 [RRGHYY-NH2] : 3.85
AAGHYY-NH2 [AAGHYY-NH2] : 3.33

With those in mind, consider the next binder.
## Task Need pKi of HSAYSDTRRGDYG-NH2 […-NH2] , thanks.
## Result 3.60
